I'd appreciate it if you could supply fold induction at 0.3 µg/mL values for the items below.
System: human cord blood-derived CD34+ cells
Assay Name: Expansion of CD34+ cells from human cord blood-derived CD34+ cells (7-day liquid culture with SCF, flow cytometry count)
Type: cell-based
Experimental Setup: 168 h, 0.3 μg/mL compound, number of CD34+ cells relative to absence of compound, 100 ng/mL SCF, 7 days, 37° C., read-out: Expansion efficiency

These solved cases illustrate the format of a correct answer.
Molecule	fold induction at 0.3 µg/mL
C/C(=N\NC(=O)c1ccc(C(=O)N2CCS(=O)(=O)CC2)s1)c1csc(-c2ccc(Cl)c(Cl)c2)c1O [compound 9]	1.4 to 2
C/C(=N\NC(=O)c1ccc(C(=O)CSc2ccncc2)s1)c1csc(-c2ccc(Cl)c(Cl)c2)c1O [compound 8]	2 to 3
C/C(=N\NC(=O)c1ccc(C(=O)NNc2ccccn2)s1)c1csc(-c2ccc(Cl)c(Cl)c2)c1O [compound 5]	1.4 to 2
C/C(=N\NC(=O)c1ccc(C(=O)N(N)Cc2ccncc2)s1)c1csc(-c2ccc(Cl)c(Cl)c2)c1O [compound 6]	1.4 to 2

Continue with the molecule presented below.
Looking up C/C(=N\NC(=O)c1ccc(C(=O)Cn2ccc(=O)cc2)s1)c1csc(-c2ccc(Cl)c(Cl)c2)c1O [compound 7] , I found its fold induction at 0.3 µg/mL recorded as 1.4 to 2
